protocol text: self-splicing fitness, log relative to wild type (ln ratio); higher = more splicing; Tetrahymena group I intron in knt gene, E. coli kanamycin selection, DiMSum; sequences stand for … in CUCUCU…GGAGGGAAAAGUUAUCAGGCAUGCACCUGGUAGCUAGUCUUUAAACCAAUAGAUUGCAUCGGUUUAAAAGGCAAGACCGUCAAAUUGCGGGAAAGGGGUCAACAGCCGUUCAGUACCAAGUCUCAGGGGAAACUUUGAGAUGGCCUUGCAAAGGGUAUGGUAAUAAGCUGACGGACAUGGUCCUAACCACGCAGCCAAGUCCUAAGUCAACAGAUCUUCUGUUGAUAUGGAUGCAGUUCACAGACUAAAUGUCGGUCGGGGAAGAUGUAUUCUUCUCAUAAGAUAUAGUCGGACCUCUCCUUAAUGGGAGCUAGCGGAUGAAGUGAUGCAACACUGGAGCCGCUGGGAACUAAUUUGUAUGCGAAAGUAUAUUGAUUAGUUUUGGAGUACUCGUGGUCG;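 further: selection with 25 µg/mL kanamycin versus none on LB agar overnight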
applied conditions: 37 °C
experimental readout: self-splicing fitness (ln)
Lab note: jot the number down without any unit.

Challenge: Which measured self-splicing fitness (ln) value corresponds to GCACAGCAAUAUUACGGCCG ?
Response given: -1.75

Challenge: Next sequence up: UACGAGCAAUAUUACGUUCA
Response given: -0.719

Challenge: Cool, now UGUUAGCAAUAUUACGCAGA
Response given: -0.752

Challenge: Param item: AGAAAGCAAUAUUACGACCC
Response given: -0.444

Challenge: Follow-up item: CCAUAGCAAUAUUACGAUCG
Response given: 0.361

Challenge: Queued: GAAGAGCAAUAUUACGGGAA
Response given: -1.72

Challenge: Now the sequence AACCAGCAAUAUUACGAUAC
Response given: -1.39

Challenge: Note, next up: GUAAAGCAAUAUUACGAAUG
Response given: -1.23

Challenge: Can you check GGGAAGCAAUAUUACGAAAG next?
Response given: -2.48

Challenge: Here is the next sequence: AUACAGCAAUAUUACGGGCU
Response given: -1.29

Challenge: Entry AAACAGCAAUAUUACGCGCA please
Response given: -0.19

Challenge: Cool, now AGUCAGCAAUAUUACGUAUA
Response given: -1.33

Challenge: Entry to check: UAGUAGCAAUAUUACGCUAA
Response given: -1.3

Challenge: Query GAUAAGCAAUAUUACGUAUC next
Response given: -2.67

Challenge: Follow-up item: UAGCAGCAAUAUUACGAAAG
Response given: -1.73

Challenge: Similarly, GACUAGCAAUAUUACGUCGC ?
Response given: -1.94

====

Field: self-splicing fitness (ln). Provide a value for each of the sequences that follow.
protocol text: self-splicing fitness, log relative to wild type (ln ratio); higher = more splicing; Tetrahymena group I intron in knt gene, E. coli kanamycin selection, DiMSum; sequences stand for … in CUCUCU…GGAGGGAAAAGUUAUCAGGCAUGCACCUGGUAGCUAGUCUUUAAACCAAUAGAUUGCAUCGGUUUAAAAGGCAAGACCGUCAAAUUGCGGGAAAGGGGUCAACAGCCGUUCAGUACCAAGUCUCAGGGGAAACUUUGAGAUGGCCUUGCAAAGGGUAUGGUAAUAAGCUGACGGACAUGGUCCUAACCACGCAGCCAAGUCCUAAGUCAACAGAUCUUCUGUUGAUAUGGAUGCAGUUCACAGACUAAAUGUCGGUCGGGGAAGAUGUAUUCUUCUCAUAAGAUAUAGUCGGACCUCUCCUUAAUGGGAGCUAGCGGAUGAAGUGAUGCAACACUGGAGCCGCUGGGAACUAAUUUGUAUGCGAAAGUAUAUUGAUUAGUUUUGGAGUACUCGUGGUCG
applied conditions: 30 °C
Enter the number alone.

Challenge: Return reported self-splicing fitness (ln); argument: CAGGAGCAAUAUUACGAGAU
Response given: -3.82

Challenge: Follow-up item: UCGGAGCAAUAUUACGUCUA
Response given: -2.52

Challenge: Another sequence to look at: CGUUAGCAAUAUUACGUUCU
Response given: -1.39

Challenge: Queued: UGGGAGCAAUAUUACGGUAG
Response given: -3.16

Challenge: Queued: ACACAGCAAUAUUACGGAUA
Response given: -2.87

Challenge: Then this sequence: CUGCAGCAAUAUUACGUGCU
Response given: -4.44

Challenge: # iterate: UAGAAGCAAUAUUACGAUCU
Response given: -1.11

Challenge: What about this sequence? CCCGAGCAAUAUUACGCCUG
Response given: -4.16

Challenge: How about GUGGAGCAAUAUUACGAGCA ?
Response given: -2.49

Challenge: What do you get for UUUCAGCAAUAUUACGGGGU ?
Response given: -3.58

Challenge: Follow-up item: GUCGAGCAAUAUUACGAUCU
Response given: -2.87

Challenge: Cool, now UCGGAGCAAUAUUACGACGA
Response given: -1.41

Challenge: And what about the sequence GAAAAGCAAUAUUACGUCCA ?
Response given: -0.703

Challenge: Same read-out for UAUUAGCAAUAUUACGGAGU ?
Response given: -3.84

Challenge: Follow-up item: UCAGAGCAAUAUUACGACUU
Response given: -2.45

Challenge: Ok, now AUUAAGCAAUAUUACGAUUU
Response given: -0.227

====

I'd appreciate it if you could supply self-splicing fitness (ln) values for the items below.
protocol text: self-splicing fitness, log relative to wild type (ln ratio); higher = more splicing; Tetrahymena group I intron in knt gene, E. coli kanamycin selection, DiMSum; sequences stand for … in CUCUCU…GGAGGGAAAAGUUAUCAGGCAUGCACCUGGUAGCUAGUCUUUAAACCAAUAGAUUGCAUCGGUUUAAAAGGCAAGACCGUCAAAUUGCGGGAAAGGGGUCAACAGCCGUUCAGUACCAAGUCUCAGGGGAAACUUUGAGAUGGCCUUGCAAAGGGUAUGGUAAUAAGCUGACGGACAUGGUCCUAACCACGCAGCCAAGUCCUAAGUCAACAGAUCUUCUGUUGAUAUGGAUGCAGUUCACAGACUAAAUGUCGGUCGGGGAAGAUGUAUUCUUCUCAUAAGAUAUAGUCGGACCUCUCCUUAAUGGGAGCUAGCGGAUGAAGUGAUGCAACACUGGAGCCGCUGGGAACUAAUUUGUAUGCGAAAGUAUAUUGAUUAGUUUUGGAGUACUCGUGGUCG
applied conditions: 30 °C
Give the figure by itself; no unit, no explanation.

Challenge: I'd like to know its self-splicing fitness (ln). The sequence in question is GCAAAGCAAUAUUACGUACC
Response given: -0.781

Challenge: And what about the sequence ACAGAGCAAUAUUACGAUCA ?
Response given: -3.4

Challenge: Query CACCAGCAAUAUUACGCUGC next
Response given: -4.19

Challenge: Check AGAGAGCAAUAUUACGCACC too.
Response given: 0.805

Challenge: What do we get for AUCCAGCAAUAUUACGGUAU ?
Response given: -2.88

Challenge: // next record GAAGAGCAAUAUUACGACUU
Response given: -0.765

Challenge: What do you have for ACUAAGCAAUAUUACGGGGC ?
Response given: -4.09

Challenge: Request: CCUAAGCAAUAUUACGCUCC
Response given: -4.01

Challenge: UCAUAGCAAUAUUACGUCCC , same question.
Response given: -2.19

Challenge: Entry to check: GGGUAGCAAUAUUACGUUCU
Response given: -0.416

Challenge: Now the same for GGUCAGCAAUAUUACGGGAA
Response given: -1.5

Challenge: Next entry: ACUUAGCAAUAUUACGCAAC
Response given: -2.89

Challenge: Continue with UAAGAGCAAUAUUACGAGAG
Response given: -2.23

Challenge: Now consider UGUCAGCAAUAUUACGUCCU and answer again.
Response given: -0.0922

Challenge: What about UCAAAGCAAUAUUACGAGGU ?
Response given: -3.05

Challenge: # repeat for AAUCAGCAAUAUUACGGGGC
Response given: -3.92

Challenge: Here is the next sequence: CGUGAGCAAUAUUACGAUCG
Response given: -3.02

Challenge: Next up: CCCGAGCAAUAUUACGCCGG
Response given: -3.9

Challenge: And for UUAAAGCAAUAUUACGUCCA ?
Response given: -0.0955

Challenge: Here is the next sequence: UUCUAGCAAUAUUACGUAAA
Response given: -1.56

Challenge: Ok, now UGCUAGCAAUAUUACGGAUA
Response given: -1.44

Challenge: Try the sequence UGGUAGCAAUAUUACGGUUG
Response given: -0.694

Challenge: And for CCGAAGCAAUAUUACGCGCC ?
Response given: -2.58

Challenge: Param item: UGACAGCAAUAUUACGAGUC
Response given: -3.94

Challenge: CGUCAGCAAUAUUACGAUCG , same question.
Response given: -1.74

Challenge: Another: UACUAGCAAUAUUACGUGUC
Response given: -3.38

Challenge: Record: GGGCAGCAAUAUUACGUUGG
Response given: -3.05

Challenge: Please do the same for CAGGAGCAAUAUUACGUUAU as well.
Response given: -3.4

Challenge: What do we get for GUCUAGCAAUAUUACGAAGU ?
Response given: -1.23

Challenge: Again, but for UGGGAGCAAUAUUACGGAGG
Response given: -3.43

Challenge: Proceed to CCACAGCAAUAUUACGACGG
Response given: -3.63

Challenge: Now consider ACCAAGCAAUAUUACGACGC .
Response given: -0.493

Challenge: Same again, this time with CAUAAGCAAUAUUACGCGUC
Response given: -3.98

Challenge: # iterate: AACGAGCAAUAUUACGUCCA
Response given: -2.92

Challenge: What do you have for CCCCAGCAAUAUUACGUGAG ?
Response given: -1.84

Challenge: Likewise for AACCAGCAAUAUUACGUCGA ?
Response given: -0.87

Challenge: And for ACUAAGCAAUAUUACGAUAA ?
Response given: -1.94

Challenge: Here is the next sequence: GAUGAGCAAUAUUACGCAUC
Response given: -2.56

Challenge: Lookup CUAUAGCAAUAUUACGUUAC
Response given: -3.45

Challenge: Let us now turn to ACGAAGCAAUAUUACGAGGU
Response given: -3.96

Challenge: # repeat for UCCGAGCAAUAUUACGAAUU
Response given: -3.49

Challenge: Next: GACGAGCAAUAUUACGGCGU
Response given: -3.7

Challenge: How about this sequence: AAGGAGCAAUAUUACGGGAU
Response given: -4.25

Challenge: Then UACCAGCAAUAUUACGAGCA ?
Response given: -0.673

Challenge: Another: CUUUAGCAAUAUUACGUUAC
Response given: -3.92

Challenge: Check CAGGAGCAAUAUUACGGUCG too.
Response given: 0.425

Challenge: Consider next the sequence AGAAAGCAAUAUUACGGAUG in the same way.
Response given: -2.93

Challenge: What about this sequence? GAAAAGCAAUAUUACGGGAC
Response given: -1.06

Challenge: Quick one: AACGAGCAAUAUUACGGUCG
Response given: -2.14

Challenge: Repeat for the following sequence: CGACAGCAAUAUUACGAAAA
Response given: -3.75

Challenge: What about CUUCAGCAAUAUUACGCAGG ?
Response given: -4.17

Challenge: What would you report for ACUAAGCAAUAUUACGAAUU ?
Response given: -2.52

Challenge: Follow-up item: UAGGAGCAAUAUUACGCUCA
Response given: -1.55

Challenge: Could you do the same for CACAAGCAAUAUUACGACGA , please?
Response given: -0.927

Challenge: Now give it for AUCCAGCAAUAUUACGGUAA too.
Response given: -1.02

Challenge: Same question for UUAGAGCAAUAUUACGGCUG please.
Response given: -0.433

Challenge: How about GUUCAGCAAUAUUACGGUCG ?
Response given: -0.812

Challenge: Proceed to AACAAGCAAUAUUACGGGAG
Response given: -2.51

Challenge: // query: CCUGAGCAAUAUUACGGGGC
Response given: -3.49

Challenge: And what about the sequence UAGAAGCAAUAUUACGCGUG ?
Response given: -1.17

Challenge: And for ACAAAGCAAUAUUACGAUCU ?
Response given: -0.717

Challenge: Try this sequence too: ACCUAGCAAUAUUACGGGCC
Response given: -2.34

Challenge: Also, CACGAGCAAUAUUACGUUCC please.
Response given: -2.89

Challenge: Would you mind doing CCGGAGCAAUAUUACGUGGA as well?
Response given: -3.59

Challenge: // next record GCCUAGCAAUAUUACGGAGU
Response given: -0.965

Challenge: And then UGCUAGCAAUAUUACGAAUA , what is it?
Response given: -1.27

Challenge: Would you mind doing CUGCAGCAAUAUUACGGGCA as well?
Response given: -3.01
